Reference source for all entries: patent US20260109721A1

system: HepG2 cell line; assay: In vitro toxicity study on HepG2 cell line (resazurin, viability and IC50); assay type: cell-based, human; settings: HepG2 cells, 800 μM lipid, 48 h post-treatment, resazurin, relative to ethanol vehicle controls
Label key: 1 (yes) means Viability (%) at different lipid concentrations, mean under 40%; 0 (no) means Viability (%) at different lipid concentrations, mean of 40% or more.

>  <compound>
CCCCC/C=C\C/C=C\CCCCCCCCOC(CCCCCCC/C=C\C/C=C\CCCCC)O[Si](C)(C)OCCCCCCN(CCO)CCO (stereo not shown)

>  <assigned_category>
0 (no)

$$$$
>  <compound>
CCCCCCCC/C=C\CCCCCCCCOC(=O)C(C)(C)CC(OCCCCCCCC/C=C\CCCCCCCC)O[Si](C)(C)OCCCCCCN1CCCCC1 (stereo not shown)

>  <assigned_category>
1 (yes)

$$$$
>  <compound>
CCCCCCCC/C=C\CCCCCCCCOC(=O)C(C)(C)CC(OCCCCCCCC/C=C\CCCCCCCC)O[Si](C)(C)OCCCCCCN(CCCCO)CCCCO (stereo not shown)

>  <assigned_category>
0 (no)

$$$$
>  <compound>
CCCCC/C=C\C/C=C\CCCCCCCC(OCCCCCCCC/C=C\CCCCCCCC)O[Si](C)(C)OCCCCCCN(CCO)CCO (stereo not shown)

>  <assigned_category>
1 (yes)

$$$$
>  <compound>
CCCCCCCC/C=C\CCCCCCCC(OCC(CCCCCC)CCCCCCCC)O[Si](C)(C)OCCCCCCN(CCO)CCO (stereo not shown)

>  <assigned_category>
0 (no)

$$$$
>  <compound>
CCCCC/C=C\C/C=C\CCCCCCCCOC(CCCCCCC/C=C\C/C=C\CCCCC)O[Si](C)(C)OCCCCCCN(C)C (stereo not shown)

>  <assigned_category>
1 (yes)

$$$$
>  <compound>
CCCCCCCC/C=C\CCCCCCCCOC(CCCCCCC/C=C\CCCCCCCC)O[Si](C)(C)OCCCCCCN(CCO)CCO (stereo not shown)

>  <assigned_category>
0 (no)

$$$$
